- EXPERIMENTAL_SYSTEM: Serine/threonine-protein kinase 33 (Homo sapiens) (UniProt Q9BYT3)
- Sequence (Q9BYT3 whole entry, looked up): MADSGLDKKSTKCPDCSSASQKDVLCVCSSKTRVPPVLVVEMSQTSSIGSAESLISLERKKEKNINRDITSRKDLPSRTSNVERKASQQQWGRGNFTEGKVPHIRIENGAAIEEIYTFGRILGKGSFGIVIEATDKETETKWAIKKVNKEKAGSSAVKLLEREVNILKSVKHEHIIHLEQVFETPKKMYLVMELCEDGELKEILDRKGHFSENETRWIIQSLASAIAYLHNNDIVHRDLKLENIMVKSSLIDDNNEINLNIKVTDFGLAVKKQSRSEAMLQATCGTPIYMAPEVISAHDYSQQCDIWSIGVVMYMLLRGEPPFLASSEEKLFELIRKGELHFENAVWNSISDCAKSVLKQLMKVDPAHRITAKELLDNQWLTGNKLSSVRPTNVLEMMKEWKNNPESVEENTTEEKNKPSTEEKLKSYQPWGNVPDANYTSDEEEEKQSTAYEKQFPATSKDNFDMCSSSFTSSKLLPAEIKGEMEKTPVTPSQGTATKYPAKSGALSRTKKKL
- ASSAY_NAME: STK33 kinase inhibitors, primary screen, biochemical, luminescence, ADP-Glo, MBP substrate (AID 2322)
- CONDITION_DETAILS: at 12.5 µM, hits give high values
The whole screen tested about 27,000 compounds, of which about 120 (0.44%) were called active. This is one part of a sample in which actives are shown more often than they occur.
Catalogue of inhibition readings, one per entry.
State the answer as a number, implicitly in %.

Some compounds with known inhibition results, for comparison:
COMPOUND | PARAMETER | QUANTITY_UNIT | OBSERVED_VALUE
Cc1nnc2sc(-c3cccc(NC(=O)C(C)Oc4ccc(Cl)cc4Cl)c3)nn12 (stereo unspecified) | inhibition | % | 1.75
O=C(CN1C(=O)COc2ccc(Cl)cc21)Nc1ccc(N2CCOCC2)cc1 | inhibition | % | 6.98
CCn1c(SCC(=O)Nc2cc(Cl)ccc2OC)nnc1-c1ccc(Br)cc1 | inhibition | % | 1.48
COc1c(O)cc2oc(-c3ccc(O)c(O)c3)cc(=O)c2c1O | inhibition | % | 39.8
CC(=O)OC[C@H]1O[C@@H](Oc2c(-c3ccc(O)c(O)c3)oc3cc(O)cc(O)c3c2=O)[C@H](O)[C@@H](O)[C@@H]1O | inhibition | % | 6.14

Tell me the measured inhibition of `O=C(NCc1ccccn1)c1ccccc1C(=O)c1ccccc1` , please.
-3.58

----------
Catalogue of inhibition readings, one per entry.
- EXPERIMENTAL_SYSTEM: Serine/threonine-protein kinase 33 (Homo sapiens) (UniProt Q9BYT3)
- ASSAY_NAME: STK33 kinase inhibitors, primary screen, biochemical, luminescence, ADP-Glo, MBP substrate (AID 2322)
- CONDITION_DETAILS: at 12.5 µM, hits give high values
Hit rate of the full screen: of about 27,000 compounds, about 120 (0.44%) were called active. Many of the other results were omitted from the sample, so actives are more common in it than they were.
State the answer as a number, implicitly in %.

Tell me the measured inhibition of `COc1ccccc1NC(=O)c1c(NC(=O)c2cccnc2)sc(C)c1C` , please.
4.55

Tell me the measured inhibition of `COc1ccccc1CC(=O)Nc1ccc(-c2nnc(-c3ccc(C)cc3)o2)cc1` , please.
6.73

Tell me the measured inhibition of `O=C(NCc1ccco1)c1ccc2c(c1)C(=O)N(Cc1cccnc1)C2=O` , please.
-0.956

Tell me the measured inhibition of `CCn1c(SCC(=O)c2ccc(OC)cc2)nnc1-c1ccc(Cl)cc1Cl` , please.
-3.02

Tell me the measured inhibition of `C[C@H]1CN([C@@H](C)CO)C(=O)CCCn2cc(nn2)CO[C@@H]1CN(C)S(=O)(=O)c1ccc(-c2ccccc2)cc1` , please.
-9.48

Tell me the measured inhibition of `O=C(CN1CCCC1)Nc1sc2c(c1C(=O)Nc1ccccc1)CCCC2` , please.
-1.02

Tell me the measured inhibition of `C[C@@H]1CN([C@@H](C)CO)C(=O)CCCn2cc(nn2)CO[C@@H]1CN(C)S(=O)(=O)c1ccccc1C#N` , please.
-7.04

Tell me the measured inhibition of `c1ccc(Cn2c3ccccc3c3nnc(SCc4ccc5nonc5c4)nc32)cc1` , please.
2.04
